Hello, the source for this data is patent US20250144067A1, in case you need it.

system: NCI-H292 lung cancer cells; test: FDA drug screening, complete media vs cholesterol-free media without statin (TABLE 1); type: cell-based, human; conditions: NCI-H292 cells, complete media
Counter-ions that a name gives are not always drawn.
Below, each entry is listed alongside its reported Complete.
API doc: respond with a numeric literal and nothing else, no unit.

Here's what some known entries look like.
                                   compound    metric  observedmeasurement
0  Clc1ccc(C(c2ccccc2Cl)C(Cl)Cl)cc1 (stereo not drawn) [Mitotane]  Complete               0.9109
1  Cc1cc(-c2ccccc2)nnc1NCCN1CCOCC1 [Minaprine (dihydrochloride)]  Complete               0.9021

// below: Complete requested for another compound
q: Find the measured Complete: item COc1cc(CNC(=O)CCCC/C=C/C(C)C)ccc1O [Capsaicin] , target or system NCI-H292 lung cancer cells.
a: 0.9142

* * *

// reported Difference for each item listed
tested on: NCI-H292 lung cancer cells; test: FDA drug screening, complete media vs cholesterol-free media without statin (TABLE 1); type: cell-based, human; settings: Complete minus Cholesterol-free; >0 enhanced anti-cancer activity, about 0 neutral, <0 antagonist
// no unit, no text: just the number

In [3]: df
Out[3]:
                                   compound      metric  observedmeasurement
0  CCC(=O)O[C@]1(C(=O)CCl)[C@@H](C)C[C@H]2[C@@H]3CCC4=CC(=O)C=C[C@]4(C)[C@@]3(F)[C@@H](O)C[C@@]21C [Clobetasol propionate]  Difference                −0.20

q: Suppose we examine the compound Cc1nc2ccc(CN(C)c3ccc(C(=O)N[C@@H](CCC(=O)O)C(=O)O)s3)cc2c(=O)[nH]1 ; what Difference value has been reported?
a: −0.24

q: // Difference lookup, key: O=C(c1ccc(F)c(F)c1Nc1ccc(I)cc1F)N1CC(O)([C@@H]2CCCCN2)C1 [Cobimetinib]
a: −0.06

q: Param item = Cc1ccccc1C(=O)Nc1ccc(C(=O)N2CCCC(N(C)C)c3ccccc32)cc1 (stereo not shown) ; retrieve measured Difference.
a: −0.20

* * *

tested on: NCI-H292 lung cancer cells; assay: FDA drug screening, complete media vs cholesterol-free media with simvastatin (TABLE 2); format: cell-based, human; details: NCI-H292 cells, FDA library drug in complete media
Counter-ions that a name gives are not always drawn.
The label Met is reserved for Complete Media strictly under 1; Not met covers values equal to or above it.

molecule	labelValue
CCCCc1nc(Cl)c(CO)n1Cc1ccc(-c2ccccc2-c2nn[nH]n2)cc1	Met
c1cnc2cc3c(cc2n1)[C@@H]1CNC[C@H]3C1	Not met
CCS(=O)(=O)N1CC(CC#N)(n2cc(-c3ncnc4[nH]ccc34)cn2)C1	Met

q: Quick check: does CC(C)(C)CC(=O)OCC(=O)[C@@]12OC(C)(C)O[C@@H]1C[C@H]1[C@@H]3CCC4=CC(=O)C=C[C@]4(C)[C@@]3(F)[C@@H](O)C[C@@]12C [Triamcinolone hexacetonide] have Complete Media under 1?
a: Met

q: Bench note: check whether COc1ccc(CN2CCN(C(c3ccc(F)cc3)c3ccc(F)cc3)CC2)c(OC)c1OC [Lomerizine dihydrochloride] shows Complete Media below 1
a: Met

q: Hello, I'm reviewing records and need to know if Complete Media of Oc1cc(O)c(Cl)cn1 is below 1. Could you check?
a: Not met

q: Regarding Nc1[nH]c(=O)ncc1F , kindly confirm whether its Complete Media is beneath 1.
a: Not met

* * *

test system: NCI-H292 lung cancer cells; assay: FDA drug screening, complete media vs cholesterol-free media without statin (TABLE 1); type: cell-based, human; details: Complete minus Cholesterol-free; >0 enhanced anti-cancer activity, about 0 neutral, <0 antagonist
Where a name gives a salt, the structure may show the parent alone.
Labelling: Difference reported below -0.2 becomes yes (1); at or above becomes no (0).

Examples with answers:
                                   molecule  labelvalue
0  Cn1c(=O)c2c(ncn2CC(=O)O)n(C)c1=O [Acefylline]     yes (1)
1  COc1cc2c(cc1OC)C(=O)C(CC1CCN(Cc3ccccc3)CC1)C2 (stereo not drawn) [Donepezil (Hydrochloride)]     yes (1)
2  Brc1c(NC2=NCCN2)ccc2nccnc12 [Brimonidine]      no (0)
3  COc1cc(C(C)=O)ccc1OCCCN1CCC(c2noc3cc(F)ccc23)CC1 [Iloperidone]      no (0)
4  C[C@]12CC[C@@H]3c4ccc(O)cc4CC[C@H]3[C@@H]1CC[C@@H]2O [Estradiol]      no (0)

We next turn to a different molecule, shown below.
q: hey, is Difference for COc1cc(OC)c(C(=O)CCCN2CCCC2)c(OC)c1 [Buflomedil (hydrochloride)] lower than -0.2 or not?
a: no (0)

* * *

system: NCI-H292 lung cancer cells; experiment: FDA drug screening, complete media vs cholesterol-free media without statin (TABLE 1); type: cell-based, human; conditions: NCI-H292 cells in cholesterol-free media without statin
# Cholesterol-free per entry

q: Which Cholesterol-free is reported for this compound? O=C([O-])[C@H](O)[C@@H](O)[C@H](O)[C@H](O)CO.[Na+] [Gluconate (sodium)]
a: 1.575

q: Fill blank: measured Cholesterol-free of the compound CC(C)(CO)c1cc2cc(NC(=O)C3(c4ccc5c(c4)OC(F)(F)O5)CC3)c(F)cc2n1C[C@@H](O)CO [Tezacaftor] is ____.
a: 1.488

q: Request the reported Cholesterol-free associated with Oc1ccc(OCc2ccccc2)cc1 [Monobenzone]
a: 1.95

* * *

Entries and their Cholesterol-free
system: NCI-H292 lung cancer cells; assay: FDA drug screening, complete media vs cholesterol-free media without statin (TABLE 1); type: cell-based, human; details: NCI-H292 cells, cholesterol-free media without statin, FDA drug library screen
Counter-ions that a name gives are not always drawn.

Some molecules with recorded Cholesterol-free:
molecule	Cholesterol-free
COC(=O)N[C@H](C(=O)N1CCC[C@H]1c1nc(-c2ccc(-c3ccc(-c4c[nH]c([C@@H]5CCCN5C(=O)[C@@H](NC(=O)OC)C(C)C)n4)cc3)cc2)c[nH]1)C(C)C [Daclatasvir (dihydrochloride)]	1.025
OC[C@@H](O)[C@@H](O)[C@H](O)[C@@H](O)CO [D-Sorbitol]	1.006
O=C(CNC(=O)c1ccc(C2=NOC(c3cc(Cl)cc(C(F)(F)F)c3)(C(F)(F)F)C2)c2ccccc12)NCC(F)(F)F (stereo not shown) [Afoxolaner]	1.008

In the following, a different molecule is considered.
q: Record request: Cholesterol-free value, item Brc1c(NC2=NCCN2)ccc2nccnc12 [Brimonidine]
a: 0.9724

* * *

test system: NCI-H292 lung cancer cells; assay: FDA drug screening, complete media vs cholesterol-free media with simvastatin (TABLE 2); type: cell-based, human; conditions: NCI-H292 cells, FDA drug library screen, complete media
metric: Complete Media
I only need the number, thanks.

Known results for compounds:
>>> df
                                   compound                  targetdesc  observedmeasurement
0   CC12CCC(CC1=O)C2(C)C (stereo not drawn)  NCI-H292 lung cancer cells               0.9969
1  CN1CC[C@@H](NC(=O)Nc2ccc(C#N)cc2)C[C@@H]1c1nc2ccccc2[nH]1  NCI-H292 lung cancer cells               0.9809

q: # get_value(readout= Complete Media, system= NCI-H292 lung cancer cells) for c1cc(CN2CCCNCCNCCCNCC2)ccc1CN1CCCNCCNCCCNCC1
a: 1.011

* * *

tested on: NCI-H292 lung cancer cells; assay: FDA drug screening, complete media vs cholesterol-free media without statin (TABLE 1); type: cell-based, human; conditions: Complete minus Cholesterol-free; greater than 0 enhanced anti-cancer activity, about 0 neutral, below 0 antagonists
Where a name gives a salt, the structure may show the parent alone.
Difference values by entry
// no unit string in output, number only

>>> print(df.to_string())
                                   compound  observedmeasurement
0  N#CC[C@H](C1CCCC1)n1cc(-c2ncnc3[nH]ccc23)cn1 [Ruxolitinib (S enantiomer)]                −0.48
1  CCC(=O)O[C@@H](O[P@](=O)(CCCCc1ccccc1)CC(=O)N1C[C@H](C2CCCCC2)C[C@H]1C(=O)O)C(C)C [Fosinopril (sodium)]                −0.52
2  CC(C)(C)c1ccc(C(=O)CCCN2CCC(OC(c3ccccc3)c3ccccc3)CC2)cc1 [Ebastine]                −0.60

q: Fill in: Difference of CC1=C(/C=C/C(C)=C/C=C/C(C)=C/C(=O)O)C(C)(C)CCC1 [Retinoic acid] is ___
a: −0.66

q: Reported Difference for C=CC(N)CCC(=O)O (stereo not shown) [Vigabatrin (hydrochloride)] : what is it?
a: −0.74

q: Request the reported Difference associated with CCCC(=O)Nc1ccc(OCC(O)CNC(C)C)c(C(C)=O)c1 (stereo not shown) [Acebutolol (hydrochloride)]
a: −0.56

q: Look up Difference: CC(=O)O[C@]1(C(C)=O)CC[C@H]2[C@@H]3C=C(Cl)C4=CC(=O)[C@@H]5C[C@@H]5[C@]4(C)[C@H]3CC[C@@]21C [Cyproterone acetate]
a: −1.74
